target: Nav 1.7 (Homo sapiens); construct: expressed in transfected cells; test: Whole-cell voltage clamp electrophysiology, automated patch clamp (marker c in Table of Examples); type: cell-based; conditions: marker c = Automated patch clamp data; read-out: Nav 1.7 activity
pIC50: −log10 of the molar value.
Label T when pIC50 is at or above 6; anything below gets F.

Use the examples below as a reference point.
CN(c1nc(N)nc(-c2noc(-c3ncccc3F)n2)n1)c1ccccc1F [Example 475] : T
CN(c1ccccc1)c1nc(N)nc(-c2noc(-c3ncccc3Cl)n2)n1 [Example 273] : T
CN(c1ccccc1)c1nc(N)nc(-c2noc(-c3n[nH]cc3Br)n2)n1 [Example 251] : F
CN(c1ccccc1)c1nc(N)nc(-c2noc(-c3cccnc3COCC(F)(F)F)n2)n1 [Example 301] : T
Nc1nc(Nc2ccccc2)nc(-c2noc(N3CC4C(COc5ccccc5)C4C3)n2)n1 (stereo not shown) [Example 392] : T
CN(c1ccccc1)c1nc(N)nc(-c2noc(-c3cccnc3Cl)n2)n1 [Example 275] : F
CN(c1ccccc1)c1nc(N)nc(-c2noc(-c3ncccc3C(=O)NCC(F)(F)F)n2)n1 [Example 381] : F
COc1cc(-c2nc(-c3nc(N)nc(Nc4ccccc4)n3)no2)ccn1 [Example 239] : F

Q. State whether the measured pIC50 reaches 6, counting equality as reaching it, for CN(c1ccccc1)c1nc(N)nc(-c2noc(C(=O)Nc3ccc(C(F)(F)F)nc3)n2)n1 [Example 263]
A. F

Q. State whether the measured pIC50 reaches 6, counting equality as reaching it, for CN(c1ccccc1)c1nc(N)nc(-c2noc(-c3ccc(CCC(F)(F)F)nc3)n2)n1 [Example 315]
A. T

Q. State whether the measured pIC50 reaches 6, counting equality as reaching it, for COC[C@H]1CCCN1c1nc(-c2nc(N)nc(N(C)c3ccccc3)n2)no1 [Example 444]
A. F

Q. State whether the measured pIC50 reaches 6, counting equality as reaching it, for COC[C@@H]1CCCN1c1nc(-c2nc(N)nc(N(C)c3ccccc3)n2)no1 [Example 446]
A. F

Q. State whether the measured pIC50 reaches 6, counting equality as reaching it, for CN(c1ccccc1)c1nc(N)nc(-c2noc(N3CC[C@H](OCC(F)(F)F)C3)n2)n1 [Example 445]
A. F

###

Parameter: IC50. Scope: all listed entries.
target: Nav 1.7 (Homo sapiens); construct: expressed in transfected cells; assay: Whole-cell voltage clamp electrophysiology, automated patch clamp (marker c in Table of Examples); assay type: cell-based; details: marker c = Automated patch clamp data; read-out: Nav 1.7 activity

# count of solved cases: 5
CCOC1CCN(C(=O)c2nc(-c3nc(N)nc(N(C)c4ccccc4)n3)no2)CC1 [Example 458] : 4.72 µM
CN(c1ccccc1)c1nc(N)nc(-c2noc(-c3ccc(OCC#N)nc3)n2)n1 [Example 330] : 9.21 µM
COc1ccccc1Cc1nc(-c2nc(N)nc(N(C)c3ccccc3)n2)no1 [Example 199] : 8.73 µM
CC(C)CS(=O)(=O)N1CCC[C@@H]1c1nc(-c2nc(N)nc(N(C)c3ccccc3)n2)no1 [Example 447] : 1.09 µM
CN1CCC(Oc2ccc(-c3nc(-c4nc(N)nc(N(C)c5ccccc5)n4)no3)cn2)C1 (stereo not drawn) [Example 364] : 1.61 µM

Q. Request the reported IC50 associated with Nc1nc(Nc2ccccc2)nc(-c2noc(NC3CCCC3)n2)n1 [Example 231]
A. 3.21 µM

Q. Request the reported IC50 associated with CN(c1ccccc1)c1nc(N)nc(-c2noc(-c3nc(C(F)(F)F)cs3)n2)n1 [Example 345]
A. 1.97 µM

Q. Request the reported IC50 associated with CN(c1ccccc1)c1nc(N)nc(-c2noc(-c3ccc(C(F)(F)F)nc3)n2)n1 [Example 267]
A. > 8.26 µM

Q. Request the reported IC50 associated with Nc1nc(Nc2cccc(F)c2)nc(-c2noc(N3CCCCC3)n2)n1 [Example 236]
A. 0.406 µM

###

molecular target: Nav 1.7 (Homo sapiens, UniProt Q15858); construct: expressed in transfected cells; test: Whole-cell voltage clamp electrophysiology, automated patch clamp (marker c in Table of Examples); type: cell-based; conditions: marker c = Automated patch clamp data; read-out: Nav 1.7 activity
Sequence (Q15858 whole entry): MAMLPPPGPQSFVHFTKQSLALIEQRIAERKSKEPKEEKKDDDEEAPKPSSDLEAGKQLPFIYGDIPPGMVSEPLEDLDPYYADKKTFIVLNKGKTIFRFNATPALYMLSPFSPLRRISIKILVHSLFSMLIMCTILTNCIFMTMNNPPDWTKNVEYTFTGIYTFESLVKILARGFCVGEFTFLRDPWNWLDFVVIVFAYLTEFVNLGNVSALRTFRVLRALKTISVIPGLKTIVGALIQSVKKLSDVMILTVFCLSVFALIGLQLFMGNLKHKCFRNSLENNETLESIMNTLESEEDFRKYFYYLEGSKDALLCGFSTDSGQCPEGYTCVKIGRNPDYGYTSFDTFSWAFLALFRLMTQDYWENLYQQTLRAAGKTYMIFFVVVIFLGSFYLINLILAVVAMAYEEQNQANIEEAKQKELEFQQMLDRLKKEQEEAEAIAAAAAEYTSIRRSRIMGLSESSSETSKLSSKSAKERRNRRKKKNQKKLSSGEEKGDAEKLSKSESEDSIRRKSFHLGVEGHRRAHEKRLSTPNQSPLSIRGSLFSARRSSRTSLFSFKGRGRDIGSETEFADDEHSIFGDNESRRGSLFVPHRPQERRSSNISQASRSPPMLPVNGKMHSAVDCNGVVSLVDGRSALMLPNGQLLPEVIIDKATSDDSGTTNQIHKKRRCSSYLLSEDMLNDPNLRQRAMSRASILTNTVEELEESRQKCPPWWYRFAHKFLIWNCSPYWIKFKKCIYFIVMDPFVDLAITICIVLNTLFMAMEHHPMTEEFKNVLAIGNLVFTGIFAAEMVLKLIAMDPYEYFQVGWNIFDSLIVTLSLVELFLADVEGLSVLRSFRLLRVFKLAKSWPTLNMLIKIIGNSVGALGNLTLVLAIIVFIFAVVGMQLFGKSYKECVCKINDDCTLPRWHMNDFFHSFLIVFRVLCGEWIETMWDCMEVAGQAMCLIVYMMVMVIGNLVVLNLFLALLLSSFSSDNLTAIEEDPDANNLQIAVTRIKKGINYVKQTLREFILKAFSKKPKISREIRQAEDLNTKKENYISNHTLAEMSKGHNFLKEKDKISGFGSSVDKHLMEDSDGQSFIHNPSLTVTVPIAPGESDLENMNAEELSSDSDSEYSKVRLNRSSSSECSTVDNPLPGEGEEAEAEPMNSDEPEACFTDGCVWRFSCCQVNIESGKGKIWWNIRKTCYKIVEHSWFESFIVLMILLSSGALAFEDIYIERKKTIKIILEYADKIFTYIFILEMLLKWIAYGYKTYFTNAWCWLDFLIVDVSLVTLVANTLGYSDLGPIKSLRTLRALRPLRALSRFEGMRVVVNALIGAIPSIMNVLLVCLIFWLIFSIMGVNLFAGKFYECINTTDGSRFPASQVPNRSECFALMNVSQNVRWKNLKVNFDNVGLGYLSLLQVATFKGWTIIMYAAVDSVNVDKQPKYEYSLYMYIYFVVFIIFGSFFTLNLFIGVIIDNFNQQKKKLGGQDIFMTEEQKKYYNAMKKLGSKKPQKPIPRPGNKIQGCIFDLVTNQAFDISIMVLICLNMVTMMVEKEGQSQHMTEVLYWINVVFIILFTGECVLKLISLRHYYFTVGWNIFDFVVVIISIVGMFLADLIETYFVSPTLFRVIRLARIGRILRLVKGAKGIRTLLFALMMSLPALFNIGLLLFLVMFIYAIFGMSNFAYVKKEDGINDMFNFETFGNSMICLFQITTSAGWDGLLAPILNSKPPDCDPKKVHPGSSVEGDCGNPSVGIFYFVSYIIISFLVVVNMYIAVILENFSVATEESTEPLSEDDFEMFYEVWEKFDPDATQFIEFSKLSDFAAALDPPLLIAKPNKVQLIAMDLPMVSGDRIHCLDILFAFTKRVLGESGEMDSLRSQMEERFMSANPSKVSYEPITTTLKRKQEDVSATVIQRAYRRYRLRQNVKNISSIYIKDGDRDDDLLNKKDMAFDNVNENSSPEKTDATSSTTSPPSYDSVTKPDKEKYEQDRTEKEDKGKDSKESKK
property.name: pIC50
Note: pIC50 values are expressed as the negative base-10 logarithm of concentration in M.

CN(c1ccccc1)c1nc(N)nc(-c2noc(-c3cccnc3C(=O)NCC(F)(F)F)n2)n1 : 5.82
CC(C)CS(=O)(=O)N1CCC(c2nc(-c3nc(N)nc(N(C)c4ccccc4)n3)no2)CC1 : 5.91

Please examine the following record next.
Q. Request the reported pIC50 associated with CC(C)OC[C@@H]1[C@H]2CN(c3nc(-c4nc(N)nc(Nc5ccccc5)n4)no3)C[C@@H]12
A. 6.16

###

biological target: Nav 1.7 (Homo sapiens, UniProt Q15858); construct: expressed in transfected cells; assay: Whole-cell voltage clamp electrophysiology, automated patch clamp (marker c in Table of Examples); type: cell-based; conditions: marker c: Automated patch clamp data; read-out: Nav 1.7 activity
Parameter: log10 of IC50. Scope: all listed entries.
// stored as log10 of IC50 expressed in nM

COc1ccccc1-c1nc(-c2nc(N)nc(N(C)c3cccc(C)c3)n2)no1 : 2.71
CN(c1ccccc1)c1nc(N)nc(-c2noc(-c3ncccc3Br)n2)n1 : 2.01
CN(c1ccccc1)c1nc(N)nc(-c2noc(-c3ccc[nH]3)n2)n1 : 3.69
Cc1cc(-c2nc(-c3nc(N)nc(N(C)c4ccccc4)n3)no2)no1 : 3.43
Cc1cc(C)c(-c2nc(-c3nc(N)nc(N(C)c4ccccc4)n3)no2)cn1 : 3.70

Please examine the following record next.
Q. Request the reported log10 of IC50 associated with CN(c1ccccc1)c1nc(N)nc(-c2noc(C3CCN(CCC(F)(F)F)CC3)n2)n1
A. 2.75

###

target: Nav 1.7 (Homo sapiens, UniProt Q15858); construct: expressed in transfected cells; test: Whole-cell voltage clamp electrophysiology, automated patch clamp (marker c in Table of Examples); assay type: cell-based; details: marker c = Automated patch clamp data; read-out: Nav 1.7 activity
property.name: pIC50
Note: pIC50 values are expressed as the negative base-10 logarithm of concentration in M.

Nc1nc(Nc2ccccc2)nc(-c2noc(-c3ccc(COCC(F)(F)F)cn3)n2)n1 [Example 350] : 8.40
CN(c1ccccc1)c1nc(N)nc(-c2noc(-c3ccc(COCC(F)(F)F)cn3)n2)n1 [Example 349] : 8.60
CN(c1ccccc1)c1nc(N)nc(-c2noc(C(=O)N3C[C@@H]4[C@@H](COCC(F)(F)F)[C@@H]4C3)n2)n1 [Example 402] : 5.40
COc1ccccc1-c1nc(-c2nc(N)nc(Nc3cccc(F)c3)n2)no1 [Example 248] : 6.42
CN(c1ccccc1)c1nc(N)nc(-c2noc(C3CN(CCC(F)(F)F)C3)n2)n1 [Example 385] : 5.65

Q. Request the reported pIC50 associated with CN(c1ccccc1)c1nc(N)nc(-c2noc(N[C@H]3CC[C@H](OCC(F)(F)F)CC3)n2)n1 [Example 337]
A. 5.11

Q. Request the reported pIC50 associated with COCCN(c1ccccc1)c1nc(N)nc(-c2noc(-c3ccc(C(=O)OC)nc3)n2)n1 [Example 311]
A. 6.35

Q. Request the reported pIC50 associated with CN(c1ccccc1)c1nc(N)nc(-c2noc(-c3ccc(OC4CCOCC4)nc3)n2)n1 [Example 361]
A. 6.56

Q. Request the reported pIC50 associated with CN(c1ccccc1)c1nc(N)nc(-c2noc(C3CCC(NC(=O)CC4CC4)CC3)n2)n1 (stereo not drawn) [Example 426]
A. 5.18

###

target: Nav 1.7 (Homo sapiens, UniProt Q15858); construct: expressed in transfected cells; assay: Whole-cell voltage clamp electrophysiology, automated patch clamp (marker c in Table of Examples); format: cell-based; conditions: marker c: Automated patch clamp data; read-out: Nav 1.7 activity
Parameter: pIC50. Scope: all listed entries.
Note: pIC50 values are expressed as the negative base-10 logarithm of concentration in M.

CC(C)N(c1ccccc1)c1nc(N)nc(-c2noc(-c3ccco3)n2)n1 [Example 30] : 6.03
CN(c1ccccc1)c1nc(N)nc(-c2noc(-c3cccnc3)n2)n1 [Example 115] : 5.88
COc1cccc(-c2nc(-c3nc(N)nc(N(C)c4cccc(Cl)c4)n3)no2)c1 [Example 83] : 6.16
COc1ncccc1-c1nc(-c2nc(N)nc(N(C)c3ccccc3)n2)no1 [Example 76] : 6.03
CN(c1ccccc1)c1nc(N)nc(-c2noc(N3CCC(CS(=O)(=O)c4ccccc4)CC3)n2)n1 [Example 179] : 6.09

Q. Request the reported pIC50 associated with CN(c1ccccc1)c1nc(N)nc(-c2noc(C3CCN(S(=O)(=O)c4ccccc4)CC3)n2)n1 [Example 172]
A. 5.97

Q. Request the reported pIC50 associated with Nc1nc(Nc2ccccc2)nc(-c2noc(-c3ccc(OCC(F)(F)F)nc3)n2)n1 [Example 41]
A. 6.17
